Biological target: KCNQ2/3 channels (Homo sapiens, UniProt O43525+O43526)
Assay: Two-electrode voltage-clamp of KCNQ2/3 channels expressed in Xenopus laevis oocytes
Format: cell-based
Settings: KCNQ2/3; 1 µM
For each of the molecules below, state its Slope.
One number for each entry, in mV.

CCCCCCCCCCCCCCCC(=O)O | 7.4
Oc1ccccc1S | 6.4
CCCCCCCC/C=C\CCCCCCCC(N)=O [Oleamide, oleamide] | 6.7
CC(=O)c1c(O)c(C)c(O)c(Cc2c(O)c3c(c(C(=O)/C=C/c4ccccc4)c2O)OC(C)(C)C=C3)c1O | 7.4

Okay, next one:
Task: What value of Slope has been reported for the following molecule? O=C(O)/C=C/CC(=O)O
Result: 4.8

Data origin, for the record: paper PMC6155021
